Assay: Clearance in Sprague-Dawley rat plasma at 1 mg/kg, iv and 10 mg/kg, po by LC-MS/MS analysis
Assay type: ADME, organism-based
OUTCOME_MEASURE: clearance (mL/min/kg)

INSERT INTO results (item_smiles, unit, recorded_number) VALUES
  ('Cc1ccnc(C(=O)Nc2ccc(NC(=O)Nc3cc(C(C)(C)C)on3)cc2)c1', 'mL/min/kg', 37.9),
  ('CC(C)(C)c1cc(NC(=O)Nc2ccc(NC(=O)c3cc(OC4CCNCC4)ccn3)cc2)no1', 'mL/min/kg', 35.8),
  ('CCN1C(C)(C)CC(Oc2ccc(C(=O)Nc3ccc(NC(=O)Nc4cc(C(C)(C)C)on4)cc3)nc2)CC1(C)C', 'mL/min/kg', 14),
  ('CC(C)(C)c1cc(NC(=O)Nc2ccc(NC(=O)c3cc4ccccc4cn3)cc2)no1', 'mL/min/kg', 47);

---

List of bioavailability values.
Assay: Oral bioavailability in Sprague-Dawley rat plasma at 10 mg/kg by LC-MS/MS analysis
Format: ADME, organism-based
Settings: Sprague-Dawley, plasma
OUTCOME_MEASURE: bioavailability (%)

INSERT INTO assay_data (item_smiles, unit, recorded_number) VALUES
  ('CCN1C(C)(C)CC(Oc2ccc(C(=O)Nc3ccc(NC(=O)Nc4cc(C(C)(C)C)on4)cc3)nc2)CC1(C)C', '%', 44),
  ('CC(C)N1CCC(Oc2ccc(C(=O)Nc3ccc(NC(=O)Nc4cc(C(C)(C)C)on4)cc3)nc2)CC1', '%', 17.5),
  ('CC(C)(C)c1cc(NC(=O)Nc2ccc(NC(=O)c3cc(OC4CCNCC4)ccn3)cc2)no1', '%', 3),
  ('CC1(C)CC(Oc2ccc(C(=O)Nc3ccc(NC(=O)Nc4cc(C(C)(C)C)on4)cc3)nc2)CC(C)(C)N1', '%', 8),
  ('CCN1CCC(Oc2ccc(C(=O)Nc3ccc(NC(=O)Nc4cc(C(C)(C)C)on4)cc3)nc2)CC1', '%', 20),
  ('CC(C)(C)c1cc(NC(=O)Nc2ccc(NC(=O)c3ccc(OC4CCN(C(C)(C)C)CC4)cn3)cc2)no1', '%', 22),
  ('CCN1CCC(Cc2ccc(C(=O)Nc3ccc(NC(=O)Nc4cc(C(C)(C)C)on4)cc3)nc2)CC1', '%', 12);

---

Assay: Clearance in Sprague-Dawley rat plasma at 1 mg/kg, iv and 10 mg/kg, po by LC-MS/MS analysis
Format: ADME, organism-based
Param threshold (20 mL/min/kg) applies to clearance; output met when value >= threshold, not met when value < threshold.

INSERT INTO measurements (item_smiles, category) VALUES
  ('CCN1CCC(Oc2ccc(C(=O)Nc3ccc(NC(=O)Nc4cc(C(C)(C)C)on4)cc3)nc2)CC1', 'met'),
  ('CN1C(C)(C)CC(Oc2ccc(C(=O)Nc3ccc(NC(=O)Nc4cc(C(C)(C)C)on4)cc3)nc2)CC1(C)C', 'not met'),
  ('CCN1CCC(Cc2ccc(C(=O)Nc3ccc(NC(=O)Nc4cc(C(C)(C)C)on4)cc3)nc2)CC1', 'met'),
  ('CC1(C)CC(Oc2ccc(C(=O)Nc3ccc(NC(=O)Nc4cc(C(C)(C)C)on4)cc3)nc2)CC(C)(C)N1', 'not met'),
  ('CC(C)(C)c1cc(NC(=O)Nc2ccc(NC(=O)c3ccc(OC4CCN(C5CC5)CC4)cn3)cc2)no1', 'not met'),
  ('CC(C)(C)c1cc(NC(=O)Nc2ccc(NC(=O)c3ccc(OC4CCN(C(C)(C)C)CC4)cn3)cc2)no1', 'not met'),
  ('CC(C)N1CCC(Oc2ccc(C(=O)Nc3ccc(NC(=O)Nc4cc(C(C)(C)C)on4)cc3)nc2)CC1', 'not met'),
  ('CCN1CCC(c2ccc(C(=O)Nc3ccc(NC(=O)Nc4cc(C(C)(C)C)on4)cc3)nc2)CC1', 'met');

Data origin: ChEMBL document CHEMBL2203000
